IC50 for CTP synthase 1 (Homo sapiens, UniProt P17812) - collated from the literature.
endpoint_name: IC50

chem_smiles: Cc1cc(-c2cncc(C(F)(F)F)n2)ccc1C(=O)NC(C)(C)c1nc(NS(=O)(=O)C2CC2)sc1C
result: 100 to 1000 nM

chem_smiles: CCOc1cncc(-c2cnc(C(=O)N[C@H](CN3CCNCC3)c3cc(NS(=O)(=O)C4CC4)ccn3)s2)n1
result: < 100 nM

chem_smiles: CCOc1cncc(-c2ccc(C(=O)NC3(c4ccnc(NS(=O)(=O)C5CC5)n4)CC3)nc2)n1
result: 100 to 1000 nM

chem_smiles: CCC(CC)(NC(=O)c1ccc(-c2cncc(F)c2)cc1)c1csc(NS(=O)(=O)C2CC2)n1
result: 100 to 1000 nM

====

pIC50 for CTP synthase 1 (Homo sapiens, UniProt P17812) - collated from the literature.
pIC50: −log10 of the molar value.

molecule: CCOc1cncc(-c2cnc(C(=O)NC(CCN3CCOCC3)c3cc(NS(=O)(=O)C4CC4)ccn3)s2)n1 (centres unmarked)
test_target: CTP synthase 1 (Homo sapiens, UniProt P17812)
pIC50: > 7.00

molecule: CCOc1cncc(-c2ccc(C(=O)NC(CCOC)c3csc(NS(=O)(=O)C4CC4)n3)c(F)c2)n1 (single isomer, unassigned)
test_target: CTP synthase 1 (Homo sapiens, UniProt P17812)
pIC50: > 7.00

molecule: CCOc1cncc(-c2cnc(C(=O)N[C@@H](CN3CCN(C4CC4)CC3)c3cc(NS(=O)(=O)C4CC4)ccn3)s2)n1 (single isomer, unassigned)
test_target: CTP synthase 1 (Homo sapiens, UniProt P17812)
pIC50: > 7.00

molecule: CC(C)(NC(=O)c1ccc(-c2cncc(Cl)n2)cn1)c1csc(NS(=O)(=O)C2CC2)n1
test_target: CTP synthase 1 (Homo sapiens, UniProt P17812)
pIC50: 6.00 to 7.00

molecule: CCOc1cncc(-c2cnc(C(=O)NC(CN3CCNCC3)c3cc(NS(=O)(=O)C4CC4)ccn3)s2)n1 (centres unmarked)
test_target: CTP synthase 1 (Homo sapiens, UniProt P17812)
pIC50: > 7.00

molecule: CCOc1cncc(-c2cnc(C(=O)N[C@@H](CN3C[C@H]4C[C@@H]3CO4)c3cc(NS(=O)(=O)C4CC4)ccn3)s2)n1
test_target: CTP synthase 1 (Homo sapiens, UniProt P17812)
pIC50: > 7.00

molecule: COc1cncc(-c2ccc(C(=O)NC(C)(C)c3csc(NS(=O)(=O)C4CC4)n3)cc2)n1
test_target: CTP synthase 1 (Homo sapiens, UniProt P17812)
pIC50: > 7.00

molecule: CCOc1cncc(-c2cnc(C(=O)N[C@@H](CCN3CCCCC3)c3cc(NS(=O)(=O)C4CC4)ccn3)s2)n1
test_target: CTP synthase 1 (Homo sapiens, UniProt P17812)
pIC50: > 7.00

molecule: CCOc1cncc(-c2cnc(C(=O)N[C@@H](C[C@@H]3CCCCN3)c3cc(NS(=O)(=O)C4CC4)ccn3)s2)n1 (single isomer, unassigned)
test_target: CTP synthase 1 (Homo sapiens, UniProt P17812)
pIC50: > 7.00

molecule: CC(C)(NC(=O)c1ccc(-c2cncc(C(F)(F)F)c2)cc1F)c1csc(NS(=O)(=O)C2CC2)n1
test_target: CTP synthase 1 (Homo sapiens, UniProt P17812)
pIC50: > 7.00

molecule: CCOc1cncc(-c2ccc(C(=O)NCc3cc(NS(=O)(=O)C4CC4)ccn3)cc2)n1
test_target: CTP synthase 1 (Homo sapiens, UniProt P17812)
pIC50: > 7.00

molecule: CCOc1cncc(-c2sc(C(=O)N[C@H](CC)c3cc(NS(=O)(=O)C4CC4)ccn3)nc2C)n1
test_target: CTP synthase 1 (Homo sapiens, UniProt P17812)
pIC50: > 7.00

molecule: COc1cncc(-c2ccc(C(=O)NCc3cc(NS(=O)(=O)C4CC4)ccn3)nc2)n1
test_target: CTP synthase 1 (Homo sapiens, UniProt P17812)
pIC50: > 7.00

molecule: CCOc1cncc(-c2cnc(C(=O)NC(CN3CCC3)c3cc(NS(=O)(=O)C4CC4)ccn3)s2)n1 (centres unmarked)
test_target: CTP synthase 1 (Homo sapiens, UniProt P17812)
pIC50: > 7.00

molecule: Cc1cc(-c2cncc(C(F)(F)F)n2)ccc1C(=O)NC(C)(C)c1csc(NS(=O)(=O)C2CC2)n1
test_target: CTP synthase 1 (Homo sapiens, UniProt P17812)
pIC50: 6.00 to 7.00

molecule: CCOc1cncc(-c2cnc(C(=O)N[C@@H](CN3[C@H](C)COC[C@@H]3C)c3cc(NS(=O)(=O)C4CC4)ccn3)s2)n1 (single isomer, unassigned)
test_target: CTP synthase 1 (Homo sapiens, UniProt P17812)
pIC50: > 7.00

molecule: CCOc1cncc(-c2ccc(C(=O)N3CCC[C@H]3c3ccnc(NS(=O)(=O)C4CC4)n3)c(F)c2)n1
test_target: CTP synthase 1 (Homo sapiens, UniProt P17812)
pIC50: > 7.00

molecule: CCOc1cncc(-c2ccc(C(=O)NC3(c4csc(NS(=O)(=O)C5CC5)n4)CC3)nc2)n1
test_target: CTP synthase 1 (Homo sapiens, UniProt P17812)
pIC50: > 7.00

molecule: CCC(NC(=O)c1ccc(-c2cccnc2)cc1)c1csc(NS(=O)(=O)C2CC2)n1 (racemic)
test_target: CTP synthase 1 (Homo sapiens, UniProt P17812)
pIC50: 6.00 to 7.00

molecule: CCOc1cncc(-c2cnc(C(=O)NC3(c4cc(NS(=O)(=O)C5CC5)ccn4)CCOCC3)s2)n1
test_target: CTP synthase 1 (Homo sapiens, UniProt P17812)
pIC50: > 7.00

molecule: CCOc1cncc(-c2cnc(C(=O)N[C@@H](CN3CCNCC3)c3cc(NS(=O)(=O)C4CC4)ccn3)s2)n1
test_target: CTP synthase 1 (Homo sapiens, UniProt P17812)
pIC50: > 7.00

molecule: CCOc1cncc(-c2cnc(C(=O)N[C@H](CCOC)c3cc(NS(=O)(=O)C4CC4)ccn3)s2)n1
test_target: CTP synthase 1 (Homo sapiens, UniProt P17812)
pIC50: > 7.00

molecule: CCC(NC(=O)c1ccc(-c2cncc(C(F)(F)F)c2)cc1)c1csc(NS(=O)(=O)C2CC2)n1 (single isomer, unassigned)
test_target: CTP synthase 1 (Homo sapiens, UniProt P17812)
pIC50: > 7.00

molecule: CC(C)(NC(=O)c1ccc(-c2cncc(OCC(F)(F)F)n2)cc1F)c1csc(NS(=O)(=O)C2CC2)n1
test_target: CTP synthase 1 (Homo sapiens, UniProt P17812)
pIC50: 6.00 to 7.00

molecule: CCOc1cncc(-c2ccc(C(=O)NC(CC)c3csc(NS(=O)(=O)C4CC4)n3)c(F)c2)n1 (racemic)
test_target: CTP synthase 1 (Homo sapiens, UniProt P17812)
pIC50: 6.00 to 7.00

molecule: O=C(NC1(c2csc(NS(=O)(=O)C3CC3)n2)CC1)c1ccc2ncccc2c1
test_target: CTP synthase 1 (Homo sapiens, UniProt P17812)
pIC50: ≤ 6.00

molecule: CCC(CC)(NC(=O)c1ccc(-c2cncc(C)c2)cc1)c1csc(NS(=O)(=O)C2CC2)n1
test_target: CTP synthase 1 (Homo sapiens, UniProt P17812)
pIC50: 6.00 to 7.00

molecule: CCOc1cncc(-c2ccc(NC(=O)C3(c4ccnc(NS(=O)(=O)C5(C)CC5)n4)CCOCC3)nc2)n1
test_target: CTP synthase 1 (Homo sapiens, UniProt P17812)
pIC50: 6.00 to 7.00

molecule: CCOc1cncc(-c2ccc(C(=O)NC3(c4cccc(NS(=O)(=O)C(F)F)c4)CC3)cc2)n1
test_target: CTP synthase 1 (Homo sapiens, UniProt P17812)
pIC50: > 7.00

====

pIC50: −log10 of the molar value.
pIC50 for CTP synthase 1 (Homo sapiens, UniProt P17812) - collated from the literature.

compound: CCOc1cncc(-c2ccc(NC(=O)C3(c4ccnc(NS(=O)(=O)C5CC5)n4)CCC3)nc2)n1
test_target: CTP synthase 1 (Homo sapiens, UniProt P17812)
pIC50: ≥ 7.00
--
compound: CCOc1cncc(-c2cnc(C(=O)N[C@H](CN(C)C)c3cc(NS(=O)(=O)C4CC4)ccn3)s2)n1 (single isomer, unassigned)
test_target: CTP synthase 1 (Homo sapiens, UniProt P17812)
pIC50: > 7.00
--
compound: CO[C@H]1CCN(c2cncc(-c3ccc(C(=O)NCc4cc(NS(=O)(=O)C5CC5)ccn4)cc3)n2)C1 (stereo in doubt)
test_target: CTP synthase 1 (Homo sapiens, UniProt P17812)
pIC50: ≤ 6.00
--
compound: CCOc1cncc(-c2ccc3c(c2)CN(C2(c4csc(NS(=O)(=O)C5CC5)n4)CC2)C3=O)n1
test_target: CTP synthase 1 (Homo sapiens, UniProt P17812)
pIC50: 6.00 to 7.00
--
compound: CC(C)Oc1cncc(-c2ccc(C(=O)NC(C)(C)c3csc(NS(=O)(=O)C4CC4)n3)cc2)n1
test_target: CTP synthase 1 (Homo sapiens, UniProt P17812)
pIC50: > 7.00
--
compound: CCOc1cncc(-c2ccc(C(=O)NC(C)(C)c3csc(NS(=O)(=O)C4CC4)n3)cc2)n1
test_target: CTP synthase 1 (Homo sapiens, UniProt P17812)
pIC50: > 7.00
--
compound: CCC(CC)(NC(=O)c1ccc(-c2cccnc2)cc1)c1csc(NS(=O)(=O)C2CC2)n1
test_target: CTP synthase 1 (Homo sapiens, UniProt P17812)
pIC50: 6.00 to 7.00
